The reported numbers originate from patent US20250257034A1.

Test: Pharmacokinetic studies in rat (i.v.)
Assay type: in vivo
Settings: male, Sprague-Dawley, rat, plasma, intravenous, rat i.v., 4 h, third individual rat (R03/R06); dose 1.37 mg/kg (I-71, I-128), 1.33 mg/kg ((S) I-67); read-out: Plasma concentration
Recorded concentration at 4 h by entry
experimentalReadout: concentration at 4 h (ng/mL)

In [3]: df
Out[3]:
                                   compound  assayvalue
0        COc1ccc2[nH]cc(CCN(C)CCOC(F)F)c2c1        2.43
1  COc1ccc2[nH]cc(CCN3CC[C@H](OC(F)F)C3)c2c1 [(S) I-67]        7.12

* * *

Assay: Pharmacokinetic studies in rat (i.v.)
Format: in vivo
Conditions: male, Sprague-Dawley, rat, plasma, iv, 1.1 mg/kg, I-1 1.10 mg/kg i.v., rat plasma, individual rats R04-R06; read-out: AUC0-tlast
Protocol: Animals: Male Sprague-Dawley rats (˜225-350 g) from Charles River Labs were acclimatized for a minimum of 5 days prior to start of study procedures. Body weights were recorded on the day of dosing. Any abnormalities were documented including presence/absence of wet dog shakes/back muscle contractions (WDS/BMC). Dosing: Formulations were administered intravenously (i.v.) via the tail vein using a 25 G needle connected to a 1 cc syringe. […]
experimentalReadout: AUC(0-t) (ng·h/mL)

>>> print(df.to_string())
                          structureassmiles  assayvalue
0  [2H]C([2H])([2H])N(CCc1c[nH]c2ccc(SC)cc12)C([2H])([2H])[2H]        11.1

* * *

Assay: Pharmacokinetic studies in rat (i.v.)
Assay type: in vivo
Conditions: male, Sprague-Dawley, rat, plasma, iv, 1.1 mg/kg, I-1 1.10 mg/kg i.v., rat plasma, 0.25 h, individual rats R04-R06; read-out: Plasma concentration
experimentalReadout: concentration at 0.25 h (ng/mL)

>>> print(df.to_string())
                          structureassmiles      experimentalreadout  assayvalue
0  [2H]C([2H])([2H])N(CCc1c[nH]c2ccc(SC)cc12)C([2H])([2H])[2H]  concentration at 0.25 h        16.6

* * *

Target: human 5-HT1A receptor (Homo sapiens)
Sequence (P08908 whole entry): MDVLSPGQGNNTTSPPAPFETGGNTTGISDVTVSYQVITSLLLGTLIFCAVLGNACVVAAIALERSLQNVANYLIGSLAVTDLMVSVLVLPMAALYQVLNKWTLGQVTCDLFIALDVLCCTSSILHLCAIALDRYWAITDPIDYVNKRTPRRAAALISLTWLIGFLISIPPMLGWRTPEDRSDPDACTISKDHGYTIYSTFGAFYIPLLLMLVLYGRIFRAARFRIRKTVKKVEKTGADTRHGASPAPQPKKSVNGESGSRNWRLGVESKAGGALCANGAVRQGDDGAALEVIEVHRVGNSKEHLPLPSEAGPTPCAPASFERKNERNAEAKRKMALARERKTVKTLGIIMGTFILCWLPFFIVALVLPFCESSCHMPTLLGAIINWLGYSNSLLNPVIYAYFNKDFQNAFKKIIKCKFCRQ
Experiment: Human 5-HT1A functional FLIPR assay (agonist mode)
Format: cell-based
Parameters: expressed in transfected cells; host or cells: HTR1A&Gα15-CHO
experimentalReadout: log10 of EC50 (log10 of the value in nM)

                                   compound  assayvalue
0  COc1ccc2[nH]cc(CCN3CC[C@@H](OC)C3)c2c1 [(R) I-66]        2.99
1              CCN(C)CCc1c[nH]c2ccc(SC)cc12        2.84
2           CSc1ccc2[nH]cc(CCN(C)C(C)C)c2c1        3.59
3  [2H]C([2H])([2H])N(CCc1c[nH]c2ccc(SC)cc12)C([2H])([2H])[2H]        2.97
4             CCN(CC)CCc1c[nH]c2ccc(SC)cc12        2.83
5  COc1ccc2[nH]cc(CCN3CC[C@H](OC(F)F)C3)c2c1 [(S) I-67]        2.27
6  COc1ccc2[nH]cc(CCN3CC[C@@H](OC(F)F)C3)c2c1 [(R) I-67]        3.20
7       CSc1ccc2[nH]cc(CCN(C(C)C)C(C)C)c2c1        3.53

* * *

Experiment: Pharmacokinetic studies in rat (i.v.)
Type: in vivo
Conditions: male, Sprague-Dawley, rat, plasma, intravenous, rat i.v., 1 h, third individual rat (R03/R06); dose 1.37 mg/kg (I-71, I-128), 1.33 mg/kg ((S) I-67); read-out: Plasma concentration
experimentalReadout: concentration at 1 h (ng/mL)

>>> df
                                   compound   experimentalreadout  unitsymbol  assayvalue
0  CN(C)CCc1c[nH]c2ccc(OCCOC(F)F)cc12 [Compound I-128]  concentration at 1 h       ng/mL        13.4
1  COc1ccc2[nH]cc(CCN3CC[C@H](OC(F)F)C3)c2c1 [(S) I-67]  concentration at 1 h       ng/mL         158
2  COc1ccc2[nH]cc(CCN(C)CCOC(F)F)c2c1 [Compound I-71]  concentration at 1 h       ng/mL        98.9

* * *

The entries below come with measured EC50 values attached.
Target: human 5-HT2C receptor (Homo sapiens, UniProt P28335)
Construct: expressed in transfected cells; host or cells: U2OS, stably transfected
Sequence (P28335 33-458): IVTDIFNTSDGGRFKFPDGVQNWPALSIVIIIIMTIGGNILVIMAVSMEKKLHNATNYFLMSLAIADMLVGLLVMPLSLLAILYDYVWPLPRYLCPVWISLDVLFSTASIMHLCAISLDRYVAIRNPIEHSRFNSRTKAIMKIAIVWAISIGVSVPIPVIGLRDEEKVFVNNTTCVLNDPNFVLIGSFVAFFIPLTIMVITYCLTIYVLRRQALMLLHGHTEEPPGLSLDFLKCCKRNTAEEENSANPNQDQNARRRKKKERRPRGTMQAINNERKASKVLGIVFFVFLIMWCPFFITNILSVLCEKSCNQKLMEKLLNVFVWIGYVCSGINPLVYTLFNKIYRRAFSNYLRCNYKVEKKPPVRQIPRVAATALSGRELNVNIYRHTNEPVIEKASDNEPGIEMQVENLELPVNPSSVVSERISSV
Experiment: cell-based
Settings: calcium mobilization, U2OS cells (Table 30)
experimentalReadout: EC50 (nM)

                          structureassmiles  experimentalreadout  unitsymbol  assayvalue
0  [2H]C([2H])([2H])N(CCc1c[nH]c2ccc(SC)cc12)C([2H])([2H])[2H]                 EC50          nM        2.37
1              CCN(C)CCc1c[nH]c2ccc(SC)cc12                 EC50          nM        2.89

* * *

Measured concentration at 0.25 h of individual entries
Test: Pharmacokinetic studies in rat (i.v.)
Type: in vivo
Details: male, Sprague-Dawley, rat, plasma, intravenous, rat i.v., 0.25 h, first individual rat (R01/R04); dose 1.37 mg/kg (I-71, I-128), 1.33 mg/kg ((S) I-67); read-out: Plasma concentration
experimentalReadout: concentration at 0.25 h (ng/mL)

>>> print(df.to_string())
                                   compound  assayvalue
0        COc1ccc2[nH]cc(CCN(C)CCOC(F)F)c2c1         292
1        CN(C)CCc1c[nH]c2ccc(OCCOC(F)F)cc12         146
2  COc1ccc2[nH]cc(CCN3CC[C@H](OC(F)F)C3)c2c1 [(S) I-67]         413

* * *

Assay: Pharmacokinetic studies in rat (i.v.)
Type: in vivo
Conditions: male, Sprague-Dawley, rat, plasma, iv, rat plasma, i.v., mean of 3 rats; estimated from 2 points only; dose 1.37 mg/kg (I-71, I-128), 1.33 mg/kg ((S) I-67); read-out: Apparent t1/2, Mean ± SD (converted)
experimentalReadout: half-life (min)

>>> df
                                   molecule  unitsymbol  assayvalue
0  COc1ccc2[nH]cc(CCN(C)CCOC(F)F)c2c1 [Compound I-71]         min        31.2
1  CN(C)CCc1c[nH]c2ccc(OCCOC(F)F)cc12 [Compound I-128]         min        14.1
2  COc1ccc2[nH]cc(CCN3CC[C@H](OC(F)F)C3)c2c1 [(S) I-67]         min        38.2

* * *

Examples of compounds with documented Predicted hepatic CL follow.
Test: Mouse liver microsomes stability
Format: in vitro ADME
Conditions: Mouse liver microsomes
experimentalReadout: Predicted hepatic CL (mL/min/kg)

>>> print(df.to_string())
                          structureassmiles   experimentalreadout  qualifiersign  assayvalue
0       CSc1ccc2[nH]cc(CCN(C(C)C)C(C)C)c2c1  Predicted hepatic CL              >       84.35
1             CCN(CC)CCc1c[nH]c2ccc(SC)cc12  Predicted hepatic CL              =       82.50
2               COc1ccc2[nH]cc(CCN(C)C)c2c1  Predicted hepatic CL              =       54.19
3  [2H]C([2H])([2H])N(CCc1c[nH]c2ccc(SC)cc12)C([2H])([2H])[2H]  Predicted hepatic CL              =       81.96
4              CCN(C)CCc1c[nH]c2ccc(SC)cc12  Predicted hepatic CL              >       84.35
5           CSc1ccc2[nH]cc(CCN(C)C(C)C)c2c1  Predicted hepatic CL              =       78.36

* * *

Experiment: Rat liver microsomes stability
Assay type: in vitro ADME
Conditions: male, rat, liver microsomes, Rat liver microsomes, 2 μM compound, 0.5 mg/mL microsomes, 1 mM NADPH; read-out: CLint (μL/min/mg protein)
Response field label takes Met when microsomal CLint at 2 μM is strictly below 40 µL/min/mg and Not met in all other cases.

                                   compound  assignedclass
0  O=C(O)Cc1ccccc1Nc1c(Cl)cccc1Cl [Diclofenac]        Not met
1  [2H]C([2H])([2H])N(CCc1c[nH]c2ccc(SC)cc12)C([2H])([2H])[2H] [Compound I-1]        Not met
2  CSc1ccc2[nH]cc(CCN(C(C)C)C(C)C)c2c1 [Compound I-17]            Met
3  CCN(C)CCc1c[nH]c2ccc(SC)cc12 [Compound I-13]        Not met
4  CCN(CC)CCc1c[nH]c2ccc(SC)cc12 [Compound I-12]            Met
5  CSc1ccc2[nH]cc(CCN(C)C(C)C)c2c1 [Compound I-19]            Met
